substrate: C[C@H](NC(=O)CCC(=O)O)C(=O)N[C@@H](C)C(=O)N1CCC[C@H]1C(=O)N[C@@H](Cc1ccccc1)C(=O)Nc1ccc([N+](=O)[O-])cc1; test: Kinetic parameters from progress curves, p-nitroanilide substrates; format: biochemical, B. amyloliquefaciens; details: other: 25° C., 0.1M tris buffer, pH 8.6
METRIC: Km (µM)
Just the number in µM, nothing appended.

Worked set:
B. amyloliquefaciens subtilisin variant arg + 166 (glycine+166 substituted) (Bacillus amyloliquefaciens; G273R) (protein, codons for the mature subtilisin corresponding to that secreted by the B. amyloliquefaciens; made in house; host or cells: Bacillus subtilis BG2036 (protease deficient)) AQSVPYGVSQIKAPALHSQGYTGSNVKVAVIDSGIDSSHPDLKVAGGASMVPSETNPFQDNNSHGTHVAGTVAALNNSIGVLGVAPSASLYAVKVLGADGSGQYSWIINGIEWAIANNMDVINMSLGGPSGSAALKAAVDKAVASGVVVVAAAGNEGTSGSSSTVRYPGKYPSVIAVGAVDSSNQRASFSSVGPELDVMAPGVSIQSTLPGNKYGAYNGTSMASPHVAGAAALILSKHPNWTNTQVRSSLENTTTKLGDSFYYGKGLINVQAAAQ
62
B. amyloliquefaciens subtilisin variant lys + 166 (glycine+166 substituted) (Bacillus amyloliquefaciens; G273K) (protein, codons for the mature subtilisin corresponding to that secreted by the B. amyloliquefaciens; made in house; host or cells: Bacillus subtilis BG2036 (protease deficient)) AQSVPYGVSQIKAPALHSQGYTGSNVKVAVIDSGIDSSHPDLKVAGGASMVPSETNPFQDNNSHGTHVAGTVAALNNSIGVLGVAPSASLYAVKVLGADGSGQYSWIINGIEWAIANNMDVINMSLGGPSGSAALKAAVDKAVASGVVVVAAAGNEGTSGSSSTVKYPGKYPSVIAVGAVDSSNQRASFSSVGPELDVMAPGVSIQSTLPGNKYGAYNGTSMASPHVAGAAALILSKHPNWTNTQVRSSLENTTTKLGDSFYYGKGLINVQAAAQ
34
B. amyloliquefaciens subtilisin variant glu + 166 (E166, glycine+166 substituted) (Bacillus amyloliquefaciens; G273E) (protein, codons for the mature subtilisin corresponding to that secreted by the B. amyloliquefaciens; made in house; host or cells: Bacillus subtilis BG2036 (protease deficient)) AQSVPYGVSQIKAPALHSQGYTGSNVKVAVIDSGIDSSHPDLKVAGGASMVPSETNPFQDNNSHGTHVAGTVAALNNSIGVLGVAPSASLYAVKVLGADGSGQYSWIINGIEWAIANNMDVINMSLGGPSGSAALKAAVDKAVASGVVVVAAAGNEGTSGSSSTVEYPGKYPSVIAVGAVDSSNQRASFSSVGPELDVMAPGVSIQSTLPGNKYGAYNGTSMASPHVAGAAALILSKHPNWTNTQVRSSLENTTTKLGDSFYYGKGLINVQAAAQ
340

Below: the item to evaluate.
Ask | Could you share which Km value was measured for B. amyloliquefaciens subtilisin variant asp + 166 (D166, glycine+166 substituted) (Bacillus amyloliquefaciens; G273D) (protein, codons for the mature subtilisin corresponding to that secreted by the B. amyloliquefaciens; made in house; host or cells: Bacillus subtilis BG2036 (protease deficient)) AQSVPYGVSQIKAPALHSQGYTGSNVKVAVIDSGIDSSHPDLKVAGGASMVPSETNPFQDNNSHGTHVAGTVAALNNSIGVLGVAPSASLYAVKVLGADGSGQYSWIINGIEWAIANNMDVINMSLGGPSGSAALKAAVDKAVASGVVVVAAAGNEGTSGSSSTVDYPGKYPSVIAVGAVDSSNQRASFSSVGPELDVMAPGVSIQSTLPGNKYGAYNGTSMASPHVAGAAALILSKHPNWTNTQVRSSLENTTTKLGDSFYYGKGLINVQAAAQ ?
Reply | 580

Data origin: patent US5264366A
